Below, each entry is listed with its recorded inhibition at 10 µM.
targetOrTestSystem: Amine oxidase [flavin-containing] B (Homo sapiens)
Sequence (P27338 whole entry): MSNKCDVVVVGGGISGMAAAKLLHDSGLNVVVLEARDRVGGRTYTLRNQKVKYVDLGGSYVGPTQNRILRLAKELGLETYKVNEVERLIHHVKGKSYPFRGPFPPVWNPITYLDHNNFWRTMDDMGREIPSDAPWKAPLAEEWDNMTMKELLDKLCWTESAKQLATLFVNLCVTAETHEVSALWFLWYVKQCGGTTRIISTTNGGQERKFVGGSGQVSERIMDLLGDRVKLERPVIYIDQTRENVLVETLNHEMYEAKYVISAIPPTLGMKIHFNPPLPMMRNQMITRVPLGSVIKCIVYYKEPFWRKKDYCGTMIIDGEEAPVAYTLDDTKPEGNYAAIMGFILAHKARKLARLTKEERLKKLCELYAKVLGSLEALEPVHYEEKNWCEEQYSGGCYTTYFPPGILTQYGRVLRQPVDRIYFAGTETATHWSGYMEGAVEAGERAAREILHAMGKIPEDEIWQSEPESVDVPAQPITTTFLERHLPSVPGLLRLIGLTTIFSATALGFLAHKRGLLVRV
assayName: Inhibition of recombinant human MAO-B expressed in baculovirus infected High 5 insect cells 10 uM using kynuramine as substrate incubated for 30 mins by spectrofluorometric method relative to control
assayContext: 0.5 h
measurementLabel: inhibition at 10 µM (%)

> print(dat)
                             chemicalsmiles     measurementlabel  reportedmeasurement
1  CN(C)C(=O)Oc1ccc(C(=O)/C=C/c2ccc(N(C)C)cc2)c(OC(=O)N(C)C)c1  inhibition at 10 µM                  5.1
2  CN1CCN(C(=O)Oc2ccc(C(=O)/C=C/c3ccc(N(C)C)cc3)c(O)c2)CC1  inhibition at 10 µM                 25.1
3  CCN1CCN(C(=O)Oc2ccc(C(=O)/C=C/c3ccc(N(C)C)cc3)c(O)c2)CC1  inhibition at 10 µM                   30
4  CN(C)c1ccc(/C=C/C(=O)c2ccc(OC(=O)N3CCOCC3)cc2OC(=O)N2CCOCC2)cc1  inhibition at 10 µM                 40.2
5  CN(C)c1ccc(/C=C/C(=O)c2ccc(OC(=O)N3CCCC3)cc2OC(=O)N2CCCC2)cc1  inhibition at 10 µM                 34.6
6  CN(C)c1ccc(/C=C/C(=O)c2ccc(OC(=O)N3CCN(Cc4ccccc4)CC3)cc2O)cc1  inhibition at 10 µM                 41.6
7  CN(C)c1ccc(/C=C/C(=O)c2ccc(OC(=O)N3CCCCC3)cc2O)cc1  inhibition at 10 µM                 31.1
8  CN(C)c1ccc(/C=C/C(=O)c2ccc(OC(=O)N3CCOCC3)cc2O)cc1  inhibition at 10 µM                 42.3
9  CN(C)c1ccc(/C=C/C(=O)c2ccc(OC(=O)N3CCCCC3)cc2OC(=O)N2CCCCC2)cc1  inhibition at 10 µM                 30.1

---

Below, each entry is listed with its recorded inhibition.
assayName: Inhibition of Cu2+-mediated aggregation of amyloid beta (1-42) (unknown origin) at 25 uM after 24 hrs by thioflavin T fluorescence-based fluorimetric method relative to control
Type: functional
measurementLabel: inhibition (%)

> print(dat)
                             chemicalsmiles  measurementunits  reportedmeasurement
1  CN(C)c1ccc(/C=C/C(=O)c2ccc(OC(=O)N3CCN(Cc4ccccc4)CC3)cc2O)cc1                 %                 94.2
2  CN(C)C(=O)Oc1ccc(C(=O)/C=C/c2ccc(N(C)C)cc2)c(OC(=O)N(C)C)c1                 %                 56.2
3  O=C(/C=C/c1ccc(N2CCOCC2)cc1)c1ccc(OC(=O)N2CCCC2)cc1O                 %                 48.9
4  CCN1CCN(C(=O)Oc2ccc(C(=O)/C=C/c3ccc(N(C)C)cc3)c(O)c2)CC1                 %                 89.2
5  COc1cc(/C=C/C(=O)CC(=O)/C=C/c2ccc(O)c(OC)c2)ccc1O                 %                 67.2
6  CN(C)C(=O)Oc1ccc(C(=O)/C=C/c2ccc(N(C)C)cc2)c(O)c1                 %                 77.9
7  CN1CCN(C(=O)Oc2ccc(C(=O)/C=C/c3ccc(N(C)C)cc3)c(O)c2)CC1                 %                 75.5
8  CCN(C)C(=O)Oc1ccc(C(=O)/C=C/c2ccc(N(C)C)cc2)c(O)c1                 %                   88
